Here, each record is paired with measured rate of sleeping (%) data.
- Test system: Kunming mice
- PROCEDURE_TEXT: Influence on hypnosis effect with pentobarbital sodium doses below the threshold (25 mg/kg i.p.)
- Format: in vivo
- REPORTED_CONDITIONS: test drug 50 mg/kg intragastric single dose, pentobarbital sodium 25 mg/kg i.p. 60 min later, sleep observed in 30 min, n = 10
Marks after values point to notes of the source that are not given here.
ATTRIBUTE_MEASURED: rate of sleeping (%)

[
  {
    "MOLECULE": "CCCc1cc2c(=O)cc(-c3ccc(C(=O)O)c(C(N)=O)c3)oc2c(I)c1CCS(=O)(=O)O [Example 35]",
    "MEASURED_RESULT": "60** %"
  },
  {
    "MOLECULE": "COc1ccc(-c2cc(=O)c3c(OC)c(OC)c(OC)c(OC)c3o2)cc1OC [Example 14, 5,6,7,8,3′,4′-hexamethoxyl-flavone]",
    "MEASURED_RESULT": "60** %"
  },
  {
    "MOLECULE": "C=Cc1ccc(-c2cc(=O)c3cc(C#N)c(Cc4ccccc4)c(C=CC)c3o2)cc1[N+](=O)[O-] [Example 32]",
    "MEASURED_RESULT": "50** %"
  },
  {
    "MOLECULE": "COc1ccc(C2CC(=O)c3c(O)cccc3O2)cc1O (stereo not shown) [Example 62]",
    "MEASURED_RESULT": "40* %"
  }
]

Where do the numbers come from? From patent US9669003B2.
